# TARGET OR SYSTEM: LATS2 (Homo sapiens)
# Sequence (Q9NRM7 whole entry): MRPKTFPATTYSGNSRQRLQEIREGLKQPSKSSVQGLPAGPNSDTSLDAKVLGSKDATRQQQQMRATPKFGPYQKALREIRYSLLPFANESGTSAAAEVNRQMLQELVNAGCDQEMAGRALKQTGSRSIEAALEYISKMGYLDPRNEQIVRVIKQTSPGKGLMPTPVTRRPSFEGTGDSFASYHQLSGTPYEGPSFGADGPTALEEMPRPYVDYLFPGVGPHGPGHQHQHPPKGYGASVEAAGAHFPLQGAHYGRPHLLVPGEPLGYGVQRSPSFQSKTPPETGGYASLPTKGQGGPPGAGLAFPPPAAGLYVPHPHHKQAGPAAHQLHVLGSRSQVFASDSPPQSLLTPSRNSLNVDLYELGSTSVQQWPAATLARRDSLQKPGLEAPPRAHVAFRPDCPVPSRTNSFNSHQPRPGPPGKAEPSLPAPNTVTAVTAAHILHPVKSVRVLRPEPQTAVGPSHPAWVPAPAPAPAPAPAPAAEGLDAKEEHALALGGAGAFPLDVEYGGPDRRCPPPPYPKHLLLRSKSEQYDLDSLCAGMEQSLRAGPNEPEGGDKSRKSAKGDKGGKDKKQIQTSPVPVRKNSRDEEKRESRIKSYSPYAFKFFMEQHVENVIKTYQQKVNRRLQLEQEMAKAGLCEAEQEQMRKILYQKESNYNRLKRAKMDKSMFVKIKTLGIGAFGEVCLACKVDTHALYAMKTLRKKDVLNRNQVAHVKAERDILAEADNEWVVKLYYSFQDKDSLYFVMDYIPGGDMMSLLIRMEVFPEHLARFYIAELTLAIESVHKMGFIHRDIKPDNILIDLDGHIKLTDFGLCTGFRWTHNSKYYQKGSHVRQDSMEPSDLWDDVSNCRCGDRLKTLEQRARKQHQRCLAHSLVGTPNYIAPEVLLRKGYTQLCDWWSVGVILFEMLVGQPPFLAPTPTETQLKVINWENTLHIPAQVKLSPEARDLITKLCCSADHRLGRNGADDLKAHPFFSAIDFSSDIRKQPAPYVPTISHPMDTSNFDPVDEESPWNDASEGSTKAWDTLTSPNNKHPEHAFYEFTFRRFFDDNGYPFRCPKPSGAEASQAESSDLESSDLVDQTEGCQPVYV
# ASSAY COMMENT: RBC HotSpot kinase assay (33P-ATP, P81 filter-binding), LATS2
# Format: biochemical
# EXPERIMENTAL CONTEXT: Table 28, biochemical kinase assay; read-out: LATS2 IC50
Answer each item with its documented pIC50.
Numbers only, as −log10 of the molar value.

Worked cases, answers included:
COMPOUND | TARGET OR SYSTEM | RECORDED ENDPOINT | MEASURED NUMBER
CC(C)(C)OC(=O)N1CCC(O)(c2ccc(-c3ccnc4[nH]ccc34)cc2)CC1 | LATS2 (Homo sapiens) | pIC50 | 6.33
NC(=O)c1ccc(-c2ccnc3[nH]ccc23)cc1 | LATS2 (Homo sapiens) | pIC50 | 6.68
NCc1ccc(-c2ccnc3[nH]ccc23)cc1 | LATS2 (Homo sapiens) | pIC50 | 7.47
C[C@@H]1CN(C(=O)CN)C[C@H](C)C1(O)c1cnc(-c2ccnc3[nH]cc(F)c23)cc1F (some centres unmarked) | LATS2 (Homo sapiens) | pIC50 | 7.33
OC1(c2ccc(-c3ccnc4[nH]cc(F)c34)cc2Cl)CCN2CCCC2C1 (centres unmarked) | LATS2 (Homo sapiens) | pIC50 | 7.75

Count: 3. Required value per item: pIC50.
1. C[C@@H]1CN(C(=O)C(C)(C)N)C[C@H](C)C1(O)c1c(F)cc(-c2ccnc3[nH]cc(F)c23)cc1F (some centres unmarked)
2. C[C@@H]1CNC[C@H](C)C1(O)c1cnc(-c2ccnc3[nH]cc(F)c23)cc1-c1ccccc1 (some centres unmarked)
3. c1cc(-c2ccc3c(c2)CCNC3)c2cc[nH]c2n1

Ans:
1: 7.71; 2: 6.42; 3: 8.00

###

# TARGET OR SYSTEM: UniProt:P31749
# ASSAY COMMENT: RBC HotSpot kinase assay (33P-ATP, P81 filter-binding), AKT
# Type: biochemical
# EXPERIMENTAL CONTEXT: Table 32, biochemical kinase assay; read-out: AKT IC50
Answer each item with its documented pIC50.
One number for each entry, as −log10 of the molar value.

COMPOUND | TARGET OR SYSTEM | MEASURED NUMBER
NCC(O)(c1ccc(Cl)cc1)c1ccc(-c2ccnc3[nH]cc(-c4ccccc4)c23)nc1 (stereo not drawn) | UniProt:P31749 | 6.90
O=C(NCC(O)(c1ccc(Cl)cc1)c1ccc(-c2ccnc3[nH]ccc23)cc1)[C@@H]1CCCN1 (stereo partly drawn) | UniProt:P31749 | 8.04
NCC(O)(c1ccc(Cl)cc1)c1ccc(-c2ccnc3[nH]cc(-c4ccccc4)c23)cc1 (stereo not drawn) | UniProt:P31749 | 6.64

Count: 6. Required value per item: pIC50.
1. O=C(CP(=O)(O)O)NCC(O)(c1ccc(Cl)cc1)c1ccc(-c2ccnc3[nH]ccc23)cc1 (stereo not drawn)
2. CC(C)(O)C(=O)NCC(O)(c1ccc(Cl)cc1)c1ccc(-c2ccnc3[nH]ccc23)cc1 (stereo not drawn)
3. CNCC(=O)NCC(O)(c1ccc(Cl)cc1)c1ccc(-c2ccnc3[nH]ccc23)cc1 (stereo not drawn)
4. O=C(CO)NCC(O)(c1ccc(Cl)cc1)c1ccc(-c2ccnc3[nH]cc(F)c23)cc1 (stereo not drawn)
5. CC(=O)NCC(O)(c1ccc(Cl)cc1)c1ccc(-c2ccnc3[nH]ccc23)cc1 (stereo not drawn)
6. NCC(=O)NCC(O)(c1ccc(Cl)cc1)c1ccc(-c2ccnc3[nH]cc(F)c23)cc1 (stereo not drawn)

Ans:
8.51
7.13
8.89
8.13
7.76
9.15

###

# TARGET OR SYSTEM: AKT Kinase-NanoLuc fusion in HEK-293 cells (Homo sapiens, UniProt P31749)
# Construct: host or cells: HEK-293
# Sequence (P31749 whole entry, the tested form may be a part): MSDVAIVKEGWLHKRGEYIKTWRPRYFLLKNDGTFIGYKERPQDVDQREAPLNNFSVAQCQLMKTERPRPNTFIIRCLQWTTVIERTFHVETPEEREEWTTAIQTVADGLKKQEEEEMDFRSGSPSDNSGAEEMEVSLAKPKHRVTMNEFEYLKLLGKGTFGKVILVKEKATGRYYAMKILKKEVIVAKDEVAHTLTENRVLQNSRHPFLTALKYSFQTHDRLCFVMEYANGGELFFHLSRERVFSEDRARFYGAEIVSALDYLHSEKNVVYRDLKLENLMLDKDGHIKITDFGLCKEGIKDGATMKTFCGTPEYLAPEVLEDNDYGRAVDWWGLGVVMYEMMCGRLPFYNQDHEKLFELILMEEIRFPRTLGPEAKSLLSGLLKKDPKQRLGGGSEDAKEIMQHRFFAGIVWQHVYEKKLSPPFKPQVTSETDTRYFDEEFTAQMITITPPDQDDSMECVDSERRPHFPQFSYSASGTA
# ASSAY COMMENT: NanoBRET target engagement assay in transfected HEK-293 cells, AKT
# Assay type: cell-based
# EXPERIMENTAL CONTEXT: cellular; read-out: AKT (Cellular) IC50
pIC50: −log10 of the molar value.
RECORDED ENDPOINT: pIC50

MOLECULE | RESULT
Cc1cc(-c2ccnc3[nH]cc(C#N)c23)cc(F)c1[C@@]1(O)[C@H](C)CN(C(=O)[C@H](CO)N(C)C)C[C@@H]1C | < 4.30
Cc1cc(-c2ccnc3[nH]cc(C#N)c23)cc(F)c1[C@@]1(O)[C@H](C)CN(C(=O)C(N)C(F)(F)F)C[C@@H]1C (stereo partly shown) | < 4.30
Cc1cc(-c2ccnc3[nH]cc(C#N)c23)cc(F)c1[C@@]1(O)[C@H](C)CN(C2CCS(=O)(=O)CC2)C[C@@H]1C | 4.24

Count: 7. Required value per item: pIC50.
1. Cc1cc(-c2ccnc3[nH]cc(C#N)c23)ccc1[C@@]1(O)[C@H](C)CN(C(=O)CN)C[C@@H]1C
2. Cc1cc(-c2ccnc3[nH]cc(C#N)c23)cc(F)c1[C@@]1(O)[C@H](C)CNC[C@@H]1C
3. Cc1cc(-c2ccnc3[nH]cc(C#N)c23)cc(F)c1[C@@]1(O)[C@H](C)CN(C(=O)[C@](C)(N)CO)C[C@@H]1C
4. Cc1cc(-c2ccnc3[nH]cc(C#N)c23)cc(F)c1[C@@]1(O)[C@H](C)CN(C(=O)CNCC(F)(F)F)C[C@@H]1C
5. Cc1cc(-c2ccnc3[nH]cc(C#N)c23)cc(F)c1[C@@]1(O)[C@H](C)CN(C(=O)[C@H](C)N)C[C@@H]1C
6. CNCC(=O)N1C[C@@H](C)[C@](O)(c2c(C)cc(-c3ccnc4[nH]cc(C#N)c34)cc2F)[C@@H](C)C1
7. Cc1cc(-c2ccnc3[nH]cc(C#N)c23)cc(F)c1[C@@]1(O)[C@H](C)CN(C(=O)[C@@H](C)N)C[C@@H]1C

Ans:
1: 4.25; 2: < 4.30; 3: < 4.30; 4: < 4.30; 5: < 4.30; 6: < 4.30; 7: < 4.30

###

# TARGET OR SYSTEM: UniProt P31749
# ASSAY COMMENT: RBC HotSpot kinase assay (33P-ATP, P81 filter-binding), AKT
# Assay type: biochemical
RECORDED ENDPOINT: pIC50
Answers are plain numbers, as −log10 of the molar value.

MOLECULE | pIC50
OC1(c2ccc(-c3ccnc4[nH]cc(Br)c34)nc2)C[C@H]2CC[C@@H](C1)N2 (some centres unmarked) | 5.59

Q: Look up UniProt P31749 data: pIC50 of `COC(=O)C1(c2ccc(-c3ccnc4[nH]cc(F)c34)cc2)CCN(C)CC1` , then report it.
Ans: 6.89

###

# TARGET OR SYSTEM: AKT Kinase-NanoLuc fusion in HEK-293 cells (Homo sapiens, UniProt P31749)
# Construct: host or cells: HEK-293
# ASSAY COMMENT: NanoBRET target engagement assay in transfected HEK-293 cells, AKT
# Format: cell-based
# EXPERIMENTAL CONTEXT: Table 28, NanoBRET, HEK-293 cells; read-out: AKT1 (Cellular) IC50
RECORDED ENDPOINT: pIC50
One number for each entry, as −log10 of the molar value.

Worked cases, answers included:
COMPOUND | pIC50
C[C@@H]1CNC[C@H](C)[C@@]1(O)c1ccc(-c2ccnc3[nH]cc(F)c23)cc1F | 5.06
Clc1c[nH]c2nccc(-c3ccc(C4CCNCC4)cc3)c12 | 4.13
OC1(c2ccc(-c3ccnc4[nH]cc(F)c34)cc2)CCNCC1 | 4.88
CC1(c2ccc(-c3ccnc4[nH]ccc34)cc2)CCNCC1 | 5.12
Cc1cc(-c2ccnc3[nH]cc(F)c23)cc(F)c1[C@@]1(O)[C@H](C)CN(C(=O)[C@@H](CO)N(C)C)C[C@@H]1C | 4.72

Count: 5. Required value per item: pIC50.
1. c1cc(-c2ccc3c(c2)CCNC3)c2cc[nH]c2n1
2. c1cc(-c2ccc(C3CCCCN3)cc2)c2cc[nH]c2n1 (centres unmarked)
3. Cc1cc(-c2ccnc3[nH]cc(F)c23)ccc1[C@@]1(O)[C@H](C)CN(C(=O)CN)C[C@@H]1C
4. Cc1cc(-c2ccnc3[nH]cc(F)c23)ccc1[C@@]1(O)[C@H](C)CN(C(C)C)C[C@@H]1C
5. Fc1c[nH]c2nccc(-c3ccc(C4CCNCC4)cc3)c12

Ans:
1. 4.76
2. 4.84
3. 5.03
4. 4.77
5. 4.88

###

# TARGET OR SYSTEM: AKT (Homo sapiens, UniProt P31749)
# Sequence (P31749 whole entry): as the sequence (P31749 whole entry, the tested form may be a part) above
# ASSAY COMMENT: RBC HotSpot kinase assay (33P-ATP, P81 filter-binding), AKT
# Format: biochemical
# EXPERIMENTAL CONTEXT: Table 28, biochemical kinase assay; read-out: AKT IC50
Quick rule for you: IC50 under 800 nM gets YES, anything else gets NO.

MOLECULE | CLASS LABEL
CC(C)N1C[C@@H](C)[C@](O)(c2c(F)cc(-c3ccnc4[nH]cc(F)c34)cc2F)[C@@H](C)C1 | YES

Q: Below 800 nM on IC50? Entry Cc1cc(-c2ccnc3[nH]cc(F)c23)cc(F)c1C1(O)[C@H](C)CN(C2CCOC2)C[C@@H]1C (some centres unmarked)
Ans: NO

Q: Below 800 nM on IC50? Entry `C[C@@H]1CN(C)C[C@H](C)[C@@]1(O)c1ccc(-c2ccnc3[nH]cc(F)c23)cc1`
Ans: YES

Q: Below 800 nM on IC50? Entry `Cc1cc(-c2ccnc3[nH]cc(F)c23)cc(F)c1[C@@]1(O)[C@H](C)CN(C(=O)[C@@H]2C[C@H](F)CN2)C[C@@H]1C`
Ans: NO

Q: Below 800 nM on IC50? Entry `COc1ccccc1-c1c[nH]c2nccc(-c3ccc(CN)cc3)c12`
Ans: NO
